Where do these numbers come from? They come from PubChem BioAssay (NCI).

Test: NCI Yeast Anticancer Drug Screen. Data for the sgs1 mgt1 strain (AID 161);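 also: 0% = growth of cultures given vehicle only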
Details: S. cerevisiae sgs1 mgt1 strain, at 50.0 µM, stronger effect = higher value
The panel holds about 79,000 compounds, 15% with a hit somewhere; the sample as a whole holds those more often.
Listed molecules paired with reported growth inhibition
Please reply with the bare figure in % and do not write the unit itself.

Solved cases (3 shown):
Cc1ccc(NC2=N/C(=C/c3ccco3)C(Cl)=N2)cc1 :: 14.5
O=C(O)C(Nc1ccc(Cc2ccc(NC(C(=O)O)c3ccccc3)cc2)cc1)c1ccccc1 (configuration not stated) :: 92
CSC1=C(C#N)C(=O)N(c2ccc(C)cc2)C(=O)C1C#N (configuration not stated) :: 31.1

Q) Recorded growth inhibition of COC(=O)c1nnn(-c2ccc(C)c(C)c2)c1C(=O)c1ccccc1 , please.
A) -15.2

Q) Recorded growth inhibition of CC[N+](C)(CCO)C(Cc1ccccc1)c1ccccc1 (configuration not stated) , please.
A) -0.1

Q) Recorded growth inhibition of N#CCc1n[nH]c(Cc2ccccc2)n1 , please.
A) 3.9

Q) Recorded growth inhibition of CC1CCC2(C)OC1OC2CN (configuration not stated) , please.
A) -2.2

Q) Recorded growth inhibition of COC(=O)c1nc(N)nc(C(=O)OC)c1C(=O)c1ccccn1 , please.
A) 1.65

Q) Recorded growth inhibition of CC1=NOC2(C1)C(=O)Nc1ccccc12 (configuration not stated) , please.
A) 8.55

Q) Recorded growth inhibition of CCCCCCCCCCCCNCC(O)c1cc(-c2ccccc2)nc2c(Cl)cc(Cl)cc12 (configuration not stated) , please.
A) 31.9

Q) Recorded growth inhibition of COC1OC(CO)C(OC(=O)Nc2ccccc2)C(OC(=O)Nc2ccccc2)C1O (configuration not stated) , please.
A) -1.4

Q) Recorded growth inhibition of COc1csn[n+]1-c1ccc(C)cc1 , please.
A) 9.45

====

Listed compounds paired with reported growth inhibition
Test: NCI Yeast Anticancer Drug Screen. Data for the bub3 strain (AID 167)
Settings: S. cerevisiae bub3 mutant strain, at 50.0 µM, stronger effect = higher value
Compounds without any hit were thinned out: in the full panel of roughly 79,000, 15% have a hit. Where a SMILES comes first, the peptide text is derived from it. The star is where a group is joined. ONb = O=[N+]([O-])c1ccc(CO*)cc1; Boc = CC(C)(C)OC(=O)*
Please reply with the bare figure in % and do not write the unit itself.

Solved cases (10 shown):
CCc1ccc(NC(=O)Nc2cccc(Cl)c2)cc1 :: -0.55
CCOC(=O)C(C(=O)CC(C)C)C(C)C (centres undefined) :: 2.95
O=c1[nH]nc(NC2Nc3ccccc3N2)c2ccccc12 :: 6.6
CC(C)(Oc1ccc2c(=O)cc(-c3ccccc3)oc2c1)C(=O)Nc1c(Cl)cccc1Cl :: 9.75
CC(C)CC(NC(=O)OC(C)(C)C)C(=O)NC(CCC(=O)OCc1ccc([N+](=O)[O-])cc1)C(=O)OCc1ccc([N+](=O)[O-])cc1 (stereo not drawn) (Boc-Leu-Glu(ONb)-ONb; configuration not given here) :: -10.1
Cc1cc(O)c(C(C)C)cc1NC(=S)Nc1ccc(S(=O)(=O)c2ccc(NC(=S)Nc3cc(C(C)C)c(O)cc3C)cc2)cc1 :: 6.65
Clc1c(Cl)c(Cl)c(CSCc2c(Cl)c(Cl)c(Cl)c(Cl)c2Cl)c(Cl)c1Cl :: 2.1
COc1c(-c2ccccc2)c(=O)n2c3cc(C)c(C)cc3n(C)c2c1C#N :: -31.1
C=CC(CO)N(CC)CC (centres undefined) :: 1.8
COc1ccc(C(O)C2CCCN(C)S2(=O)=O)cc1 (centres undefined) :: 30.6

Q) Recorded growth inhibition of c1c[nH]c(C2=NCCCCC2)c1 , please.
A) -5.2

Q) Recorded growth inhibition of O=C1c2ccccc2-c2ccc(I)cc21 , please.
A) 8.45

Q) Recorded growth inhibition of O=C(O)c1ccccc1SC(Sc1ccccc1C(=O)O)c1ccc(Cl)cc1 , please.
A) -4.1

Q) Recorded growth inhibition of CCC(=O)OCCCCC1CCCO1 (centres undefined) , please.
A) 12.3

Q) Recorded growth inhibition of O=C1N(Cc2ccccc2)[C@H]2CS(=O)(=O)C[C@@H]2N1Cc1ccccc1 , please.
A) 0.85

Q) Recorded growth inhibition of COc1cccc(C2N=NC3=C(CCCC3)N2O)c1O (centres undefined) , please.
A) 25.1

Q) Recorded growth inhibition of CN(C)CCC(/C=C/c1ccccc1)=N\Nc1ccccc1 , please.
A) -12.8
